- assay.explanation: Pharmacokinetic study of oral administration in male beagle dogs
- Assay type: in vivo
- condition.summary: dog, plasma, po, 5 mg/kg, 5.0 mpk (calculated in free state), 0.5% MC aqueous suspension
measured.parameter: Cmax (nM)

CSc1sc(C(N)=O)c2c1-c1nc(Nc3cc(N4CCN(C)CC4)ccc3OC(F)(F)F)ncc1CC2 | 123

* * *

- assay.explanation: Pharmacokinetic study of oral administration in male beagle dogs
- Assay type: in vivo
- condition.summary: dog, plasma, po, 5 mg/kg, 5.0 mpk (calculated in free state), 0.5% MC aqueous suspension
measured.parameter: Tmax (h)

CSc1sc(C(N)=O)c2c1-c1nc(Nc3cc(N4CCN(C)CC4)ccc3OC(F)(F)F)ncc1CC2 | 4
